Target: T1, 9P-S2 (synthetic construct)
T1 chain: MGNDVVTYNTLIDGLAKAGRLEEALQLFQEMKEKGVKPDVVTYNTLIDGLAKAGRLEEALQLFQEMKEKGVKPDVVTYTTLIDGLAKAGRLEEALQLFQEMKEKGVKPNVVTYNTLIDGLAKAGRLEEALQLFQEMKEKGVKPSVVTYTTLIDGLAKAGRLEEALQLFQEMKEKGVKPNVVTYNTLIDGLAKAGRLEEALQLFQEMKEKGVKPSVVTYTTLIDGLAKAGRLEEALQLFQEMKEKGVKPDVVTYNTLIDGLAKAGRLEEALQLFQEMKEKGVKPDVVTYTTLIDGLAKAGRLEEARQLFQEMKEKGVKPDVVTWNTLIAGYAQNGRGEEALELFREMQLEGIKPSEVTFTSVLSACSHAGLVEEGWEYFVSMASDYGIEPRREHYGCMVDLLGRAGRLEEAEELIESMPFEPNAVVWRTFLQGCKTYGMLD
Experiment: isothermal titration calorimetry; HRP: 50 mM Tris pH 8, 150 mM NaCl, 1 mM beta-mercaptoethanol, 50 ug/ml BSA, 3 ug/ml yeast RNA, 0.5% heparin; ITC and FP: Tris pH 8, 200 mM KCl, 5% glycerol; MST: 50 mM Tris pH 8, 200 mM NaCl, 1 mM DTT, BSA, heparin, 0.05% Tween 20
Conditions: protein: recombinant; tags: N-terminal TRX-His
RECORDED ENDPOINT: Kd (nM)

{"BINDER": "UUACACGUG (ssRNA) [rpoA footprint (ITC)]", "READOUT NUMBER": 239}
